Hi there, I'd appreciate the recorded cell viability for every entry that follows.
Test system: HL-60
Assay: cell viability (% survival relative to DMSO control); higher = less cytotoxic
Settings: 1 µM; 72 h; co-treatment: DMSO vehicle
Response body: numeric value in %, unit text excluded.

Exam item: Sample O=C([O-])CC(O)(C(=O)[O-])C(O)C(=O)[O-].[K+].[K+].[K+] (stereo not given) [Hydroxycitrate] — what was its cell viability?
Marked response: 87.7

Exam item: Reported cell viability for C[C@]12C=CC(=O)C=C1CC[C@@H]1[C@@H]2[C@@H](O)C[C@@]2(C)[C@H]1CC[C@]2(O)C(=O)CO : what is it?
Marked response: 103

Exam item: # query: cell viability of entry CCc1c(C(=O)C(N)=O)c2c(OCC(=O)O)cccc2n1Cc1ccccc1
Marked response: 97.5

Exam item: Returns the measured cell viability for the input compound. Input: O=c1c(-c2ccc(O)cc2)coc2cc(O[C@@H]3O[C@H](CO)[C@@H](O)[C@H](O)[C@H]3O)ccc12
Marked response: 98.9

Exam item: Consider the compound N#Cc1ccnc(N2C(=O)CC[C@H]2C(=O)N(c2cncc(F)c2)[C@H](C(=O)NC2CC(F)(F)C2)c2ccccc2Cl)c1 and give its measured cell viability.
Marked response: 97.6

* * *

System: KG-1
Test: cell viability (% survival relative to DMSO control, bortezomib = 0%); higher = less cytotoxic
Conditions: 10 nM; 72 h
Would you kindly list cell viability for each of these compounds?
Quick reminder: number only, in %, skip the unit.

Exam item: Entry under review: O=C(O)CC[N+](=O)[O-] . Reported cell viability?
Marked response: 91.2

Exam item: Entry COC(=O)c1cc2c(C(F)(F)F)cc(-c3ccccc3)cc2n1O : reported cell viability = ?
Marked response: 90.8

Exam item: Which measured cell viability value corresponds to C=CC(=O)c1ccc(O)cc1 ?
Marked response: 92.7

Exam item: Quick check: cell viability of O=c1c(-c2ccc(O)cc2)coc2cc(O[C@@H]3O[C@H](CO)[C@@H](O)[C@H](O)[C@H]3O)ccc12 ?
Marked response: 96.6

Exam item: # cell viability lookup, item N#C/C(=C\c1ccc(O)cc1)C(=O)O [alpha-cyano-4-hydroxycinnamic acid]
Marked response: 96.7

Exam item: Given the compound Cc1cccc(Nc2cc(Cl)nc(SCC(=O)O)n2)c1C , what is its reported cell viability?
Marked response: 93.1

Exam item: Fill in: cell viability of Cc1cc(C(=O)NNCc2ccccc2)no1 is ___
Marked response: 109

* * *

System: myeloid leukemia patient primary cells Pat.12
Test: cell viability (% survival relative to DMSO control); higher = less cytotoxic
Settings: 100 nM; 72 h
measurement.label: cell viability (%)
Respond with the bare value in %.

Exam item: Reported cell viability for C[C@]12C=CC(=O)C=C1CC[C@@H]1[C@@H]2[C@@H](O)C[C@@]2(C)[C@H]1CC[C@]2(O)C(=O)CO [Prednisolone] : what is it?
Marked response: 95.7

Exam item: Quick one: cell viability of O=C1C(SCCO)=C(SCCO)C(=O)c2ccccc21 ?
Marked response: 92

Exam item: Please look up its cell viability: Cc1cc2c(C(C)C)c(O)c(O)c(C=O)c2c(O)c1-c1c(C)cc2c(C(C)C)c(O)c(O)c(C=O)c2c1O [Gossypol]
Marked response: 88.1

Exam item: So what does the record say about cell viability for CN(Cc1cnc2nc(N)nc(N)c2n1)c1ccc(C(=O)N[C@@H](CCC(=O)O)C(=O)O)cc1 [Methotrexate] ?
Marked response: 97.4
